Provenance of the data: the supplement of paper PMC10126150

Tested on: ATP;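 note: ATP exposure 15 min at 22 °C before imaging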
Experiment: switch fluorescence ratio, 500 uM ATP over buffer (Cy3 cluster intensity, sum of 5 cycles each) (fold (ratio)); higher = stronger signal-on switching upon ATP binding; sequences stand for … in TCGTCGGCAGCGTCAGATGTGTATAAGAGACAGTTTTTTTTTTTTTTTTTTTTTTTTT…TC
Details: aptamer strand: ATP DNA aptamer (quencher-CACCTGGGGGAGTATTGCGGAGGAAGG + anchor), 100 nM annealed; ATP concentration: 500 uM
PROPERTY_MEASURED: switch fluorescence ratio

Query: switch fluorescence ratio; subject: AGATGTCAGC
0.971

Query: switch fluorescence ratio; subject: TTGAGCATAG
1.43

Query: switch fluorescence ratio; subject: CAGACGGGGG
1.01

Query: switch fluorescence ratio; subject: TGCAGAGCAC
1.01

Query: switch fluorescence ratio; subject: CATTCGTAGG
0.965

Query: switch fluorescence ratio; subject: TGATTTAACC
1.05

Query: switch fluorescence ratio; subject: AGTGTCCGAT
0.989

Query: switch fluorescence ratio; subject: TAACCCCGCT
1.42

Query: switch fluorescence ratio; subject: GAAGAGGGGA
1.01

Query: switch fluorescence ratio; subject: ACCCATCCAT
1.02

Query: switch fluorescence ratio; subject: TTCGGTGGTT
1.08

Query: switch fluorescence ratio; subject: TTCTGCTCGC
1.08

Query: switch fluorescence ratio; subject: TAATGGAGGC
1.05

Query: switch fluorescence ratio; subject: ACAGTTGGCC
1.02

Query: switch fluorescence ratio; subject: GGCTTTGGGG
0.975

Query: switch fluorescence ratio; subject: TCCGCGACGG
1.4

Query: switch fluorescence ratio; subject: CGGCGTAGTC
1.02

Query: switch fluorescence ratio; subject: TATCGGATAA
0.995

Query: switch fluorescence ratio; subject: GTTGGCGAGT
1.01

Query: switch fluorescence ratio; subject: CAGGTTGGGT
1

====

Give switch fluorescence ratio for every item shown.
Tested on: ATP;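 note: ATP exposure 15 min at 22 °C before imaging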
Assay: switch fluorescence ratio, 500 uM ATP over buffer (Cy3 cluster intensity, sum of 5 cycles each) (fold (ratio)); higher = stronger signal-on switching upon ATP binding; sequences stand for … in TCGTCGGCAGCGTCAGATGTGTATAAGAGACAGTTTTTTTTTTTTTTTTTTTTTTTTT…TC
Settings: aptamer strand: ATP DNA aptamer (quencher-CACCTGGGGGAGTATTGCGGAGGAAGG + anchor), 100 nM annealed; ATP concentration: 500 uM
Just the number, please.

Query: switch fluorescence ratio; subject: TCTCGCTTGG
1.02

Query: switch fluorescence ratio; subject: CCTATTGTAT
1.02

Query: switch fluorescence ratio; subject: GATTGTAAGA
1.16

Query: switch fluorescence ratio; subject: GGGGTAACAG
1.01

Query: switch fluorescence ratio; subject: GGGAAGTGAG
1.01

Query: switch fluorescence ratio; subject: GTTTGGGTTA
1.01

Query: switch fluorescence ratio; subject: AAAAAGCTGG
1.03

Query: switch fluorescence ratio; subject: TTGTGTTAGT
0.958

Query: switch fluorescence ratio; subject: ATGTAACTTA
1.03

Query: switch fluorescence ratio; subject: TGGAACTTTT
0.974

Query: switch fluorescence ratio; subject: CCTATTATTG
0.98

Query: switch fluorescence ratio; subject: GGGGGCCATG
1.03

Query: switch fluorescence ratio; subject: AATATGAAGG
1

Query: switch fluorescence ratio; subject: GGCCGGGGGA
1.03

Query: switch fluorescence ratio; subject: TTTAAGCCGG
1.01

Query: switch fluorescence ratio; subject: CAATTCAGGA
1.01

Query: switch fluorescence ratio; subject: GCGCTAGCAG
0.99

Query: switch fluorescence ratio; subject: ATTGTTATCT
1

Query: switch fluorescence ratio; subject: AATAAACGCT
1.04

Query: switch fluorescence ratio; subject: GATACGTAGG
1.01
